Origin of values: patent US20250277059A1

Would you kindly list Activity: Calu-3 Inhibiton for each of these binders?
target: Human TMPRSS2 expressed on cells (human, UniProt O15393 1-492); assay: cell-based or functional assay
Sequence (O15393 whole entry): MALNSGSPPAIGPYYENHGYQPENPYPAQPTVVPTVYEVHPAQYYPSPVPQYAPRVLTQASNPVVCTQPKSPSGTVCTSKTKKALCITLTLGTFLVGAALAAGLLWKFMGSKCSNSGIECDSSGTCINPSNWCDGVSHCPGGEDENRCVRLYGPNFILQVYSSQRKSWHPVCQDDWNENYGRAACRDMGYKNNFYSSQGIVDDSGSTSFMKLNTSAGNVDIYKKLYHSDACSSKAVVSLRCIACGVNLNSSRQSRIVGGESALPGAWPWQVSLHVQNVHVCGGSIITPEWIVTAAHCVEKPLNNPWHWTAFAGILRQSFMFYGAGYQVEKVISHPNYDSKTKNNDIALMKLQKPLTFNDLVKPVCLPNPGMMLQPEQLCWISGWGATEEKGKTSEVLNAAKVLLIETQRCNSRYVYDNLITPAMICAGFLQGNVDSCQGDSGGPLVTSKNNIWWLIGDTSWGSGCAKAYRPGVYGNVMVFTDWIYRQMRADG
Reply with just the number.

Data request: // Input: 1831_15 antibody (antibody, V domains shown) VH: QVQLQQPGAELVKPGASVKLSCKASGYSFTTYWMHWVRQRPGQGLEWIGIIHPNSGTTNYNEKFKSKASLTVDKSSSTAYMQLSSLTSEDSAVYYCARLLWDYFDYWGQGTTLTVSS VL: DIVMSQSPSSLAVSAGEKVTMSCKSSQSLLNSRTRKNFLAWYQQKPGQSPKLLIYWASTRESGVPDRFTGSGSGTDFTLTISSVQAEDLAVYYCKQSYNLYTFGGGTKLEIK . Output its Activity: Calu-3 Inhibiton only.
Data returned: 44.8

Data request: Return value of Activity: Calu-3 Inhibiton for input 2114_16 antibody (antibody, V domains shown, also called 2114 antibody) VH: EVQLQQSGPELVKPGASVKISCKASGYTFTDYYMNWVKRRHGKSLEWIGNINPNNGGTSYNQKFKGKATLTVDKSSSTAYMELRSLTSEDSVVYYCAREGDLFPFAYWGQGTLVTVSA VL: QAVVTQESALTTSPGETVTLTCRSSIGTVTTSNFANWVQEKPDHLFTGLIGASNNRAPGVPARFSGSLIGDKAALTITGAQTEDEAIYFCALWFSNHWVFGGGTKLTVL , no commentary.
Data returned: 47.6

Data request: Given the binder 1864_10 antibody (antibody, V domains shown) VH: QVQLQQSGPALVKPGASLKISCEASGYTFTYYSINWVKQRPGQGLEWIGWIFPGSGSTYYNEKFKGKATLTIDKSSSTAYMLLSSLTSEDSAVYFCARSDYGSAYGYFDVWGTGTTVTVSS VL: DIVLTQSPASLAVSLGQRATISCRASKSVSTSGYSYMHWYQQKPGQPPKLLIYLASNLESGVPARFSGSGSGTDFTLNIHPVEEEDAATYYCQHSRDLPLTFGAGTKLELK , write its reported Activity: Calu-3 Inhibiton.
Data returned: 67.6

Data request: Identify the reported Activity: Calu-3 Inhibiton for the following entry. 2020_12 antibody (antibody, V domains shown) VH: QVQLQQPGAELAKPGASVKLSCKASGYTFTSYWMHWVKQRPGQGLEWIGLIPPNSGSSNYNEKFKSKATLTVDKSSRTAYMQLSSLTSEDSAVYYCARWDYGSSYGYFDVWGTGTTVTVSS VL: DIVLTQSPASLAVSLGQRATISCRASESVSTSGYSYMHWYQQKPGQPPKLLIYLASNLESGVPVRFSGSGSGTDFTLNIHPVEEEDAATYYCQHSRELPPTFGAGTKLELK
Data returned: 66
